System: photoreceptor layer of rats exposed to blue light
measurement protocol: Blue light (480 nm) photoreceptor damage in rats, retinal structure by histology
Format: in vivo, Sprague-Dawley rats
Design: key: * means a protective effect of the photoreceptor layer to damage from blue light radiation.; **: Greater effectiveness is shown by increasing number of *'s.; ***: Greater effectiveness is shown by increasing number of *'s.; X means no such protective effect
condition: rats, oral dosing 5 days, last dose 2 hours before 8 hours blue light (480 nm, 12000 LUX)
recorded endpoint: Protective Activity

1) CCc1ccc(C2=CC(C)(C)Sc3ccc(C#Cc4ccc(C(=O)O)cc4)cc32)cc1 [Compound C] ... X
2) CC1(C)CCC(C)(C)c2c1cc(C(=O)Nc1cc(F)c(C(=O)O)c(F)c1)c(O)c2Cl [Compound E] ... **
3) CCCOc1c(\C(CC)=C(F)/C=C/C(C)=C/C(=O)O)cc(C(C)C)cc1C(C)C [Compound B] ... X
4) CC(/C=C/[C@@H]1C[C@]1(C)c1ccc2c(c1)C(C)(C)CCC2(C)C)=C\C(=O)O [Compound A] ... **
5) CCC[C@]1(c2ccc3c(c2)C(C)(C)CCC3(C)C)C[C@H]1/C=C/C(C)=C/C(=O)O [Compound F] ... X

Note: attention shifts to another entry.
Query: Entry under review: Cc1ccc(C2CC(C)(C)Oc3c(Br)cc(NC(=O)c4ccc(C(=O)O)c(F)c4)cc32)cc1 (stereo not drawn) [Compound D] . Reported Protective Activity?
Response: X

Ref: patent US20070112032A1
